# target: recombinant guanylate cyclase reporter cell line (Rattus norvegicus, UniProt P19686+P20595)
# Construct: expressed in transfected cells
# Sequence (P19686 whole entry): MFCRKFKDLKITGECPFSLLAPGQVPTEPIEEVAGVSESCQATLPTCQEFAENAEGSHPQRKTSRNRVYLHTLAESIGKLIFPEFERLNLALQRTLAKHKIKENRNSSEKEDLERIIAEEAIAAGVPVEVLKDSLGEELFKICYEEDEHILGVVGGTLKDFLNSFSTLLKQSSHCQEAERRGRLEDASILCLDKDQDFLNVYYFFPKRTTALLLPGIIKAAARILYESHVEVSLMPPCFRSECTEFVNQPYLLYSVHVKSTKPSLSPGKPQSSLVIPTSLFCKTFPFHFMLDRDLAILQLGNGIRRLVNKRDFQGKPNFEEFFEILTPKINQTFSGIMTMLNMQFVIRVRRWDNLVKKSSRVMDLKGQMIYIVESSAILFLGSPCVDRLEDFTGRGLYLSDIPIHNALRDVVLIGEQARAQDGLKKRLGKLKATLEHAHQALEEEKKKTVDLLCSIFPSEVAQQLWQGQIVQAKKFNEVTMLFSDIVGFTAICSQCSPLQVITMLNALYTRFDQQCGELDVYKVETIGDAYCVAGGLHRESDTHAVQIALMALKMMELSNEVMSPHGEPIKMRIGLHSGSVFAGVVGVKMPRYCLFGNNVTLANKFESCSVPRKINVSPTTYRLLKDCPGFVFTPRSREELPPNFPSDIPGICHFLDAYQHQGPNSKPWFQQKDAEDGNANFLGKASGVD
# Sequence (P20595 whole entry): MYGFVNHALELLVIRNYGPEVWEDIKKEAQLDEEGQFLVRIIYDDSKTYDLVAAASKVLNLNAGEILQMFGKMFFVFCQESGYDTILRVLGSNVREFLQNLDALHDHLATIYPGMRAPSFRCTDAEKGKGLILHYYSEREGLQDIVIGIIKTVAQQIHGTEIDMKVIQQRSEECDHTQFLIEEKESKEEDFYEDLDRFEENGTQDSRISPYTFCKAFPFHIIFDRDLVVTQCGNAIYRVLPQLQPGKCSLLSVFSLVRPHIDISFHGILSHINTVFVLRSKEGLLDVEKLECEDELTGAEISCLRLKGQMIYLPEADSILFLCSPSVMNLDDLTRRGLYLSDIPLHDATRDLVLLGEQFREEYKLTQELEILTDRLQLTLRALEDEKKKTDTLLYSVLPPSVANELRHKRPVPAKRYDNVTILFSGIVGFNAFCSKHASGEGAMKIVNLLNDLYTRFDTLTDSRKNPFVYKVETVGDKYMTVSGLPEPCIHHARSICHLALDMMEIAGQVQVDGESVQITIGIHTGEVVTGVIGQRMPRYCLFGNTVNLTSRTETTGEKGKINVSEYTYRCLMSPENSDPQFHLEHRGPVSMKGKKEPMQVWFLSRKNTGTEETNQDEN
# assay protocol: Effect on a recombinant guanylate cyclase reporter cell line
# Type: cell-based
# test conditions: MEC = minimum effective concentration; in some cases mean values for individual determinations
Exercise: state measured MEC for each of the compounds provided.
Express your answer in µM, writing the number without its unit.

-- ask I have this compound here, Cc1nc2c(OCc3c(F)cccc3F)cc(Cl)cn2c1C(=O)Nc1c(C(F)(F)F)nn(CCO)c1C [Example 117] , and I need its recorded MEC.
-- reply 0.1

-- ask Proceed to Cc1nn(C)c(C)c1NC(=O)c1c(C)nc2c(OCc3c(F)cccc3F)cccn12 [Example 57]
-- reply 3.0

-- ask Proceed to Cc1ccnc(NC(=O)c2c(C)nc3c(OCc4c(F)cccc4F)cccn23)n1 [Example 126]
-- reply 1.0

-- ask Proceed to Cc1ccc2ccccc2c1NC(=O)c1c(C)nc2c(OCc3c(F)cccc3F)cccn12 [Example 66]
-- reply 0.1

* * *

Exercise: state measured MEC for each of the compounds provided.
# target: recombinant guanylate cyclase reporter cell line (Rattus norvegicus, UniProt P19686+P20595)
# Construct: expressed in transfected cells
# assay protocol: Effect on a recombinant guanylate cyclase reporter cell line
# Format: cell-based
# test conditions: MEC = minimum effective concentration; in some cases mean values for individual determinations
Express your answer in µM, writing the number without its unit.

-- ask I have this compound here, Cc1nc2c(OCc3c(F)cccc3F)cc(Cl)cn2c1C(=O)Nc1cnn2ccccc12 [Example 82] , and I need its recorded MEC.
-- reply 0.3

-- ask Proceed to Cc1nc2c(OCc3c(F)cccc3F)cccn2c1C(=O)Nc1cnn(COCC(F)(F)F)c1 [Example 90]
-- reply 0.3

-- ask Proceed to Cc1noc(C)c1NC(=O)c1c(C)nc2c(OCc3c(F)cccc3F)cc(Cl)cn12 [Example 39]
-- reply 1.0

-- ask Proceed to Cc1cc(N2CCNCC2)ccc1NC(=O)c1c(C)nc2c(OCc3c(F)cccc3F)cc(Cl)cn12 [Example 108]
-- reply 1.0

* * *

# target: recombinant guanylate cyclase reporter cell line (Rattus norvegicus, UniProt P19686+P20595)
# Construct: expressed in transfected cells
# assay protocol: Effect on a recombinant guanylate cyclase reporter cell line
# Type: cell-based
# test conditions: MEC = minimum effective concentration; in some cases mean values for individual determinations
Structures can show the parent of a compound that is named as a salt.
experimental endpoint: MEC

-- ask I have this molecule here, Cc1cc(OCc2c(F)cccc2F)c2nc(C)c(C(=O)Nc3cnn(CCO)c3)n2c1 [Example 86] , and I need its recorded MEC.
-- reply 0.3 µM

-- ask Proceed to Cc1nc2c(OCc3c(F)cccc3F)cccn2c1C(=O)Nc1c[nH]c2ccccc12 [Example 2]
-- reply 0.1 µM

-- ask Proceed to Cc1nc2c(OCc3c(F)cccc3F)cccn2c1C(=O)Nc1ccnc2cc(Cl)ccc12 [Example 77]
-- reply 0.1 µM

-- ask Proceed to Cc1cc(OCc2c(F)cccc2F)c2nc(C)c(C(=O)Nc3c(C(F)(F)F)n[nH]c3C)n2c1 [Example 94]
-- reply 0.1 µM

-- ask Proceed to Cc1nc2c(OCc3c(F)cccc3F)cccn2c1C(=O)Nc1cnn(CC(N)=O)c1 [Example 25]
-- reply 3.0 µM

-- ask Proceed to Cc1nc2c(OCc3c(F)cccc3F)cccn2c1C(=O)Nc1n[nH]c2ccccc12 [Example 80]
-- reply 0.3 µM

-- ask Proceed to Cc1nn(S(C)(=O)=O)c(C)c1NC(=O)c1c(C)nc2c(OCc3c(F)cccc3F)cccn12 [Example 154]
-- reply 1.0 µM

-- ask Proceed to Cc1nc2c(OCc3c(F)cccc3F)cccn2c1C(=O)Nc1nccc2ccccc12 [Example 59, trifluoroacetate]
-- reply 1.0 µM

-- ask Proceed to Cc1n[nH]c(C)c1NC(=O)c1c(C)nc2c(OCc3c(F)cccc3F)cc(N3CCCC3)cn12 [Example 50]
-- reply 1.0 µM

-- ask Proceed to Cc1n[nH]c(C)c1NC(=O)c1c(C)nc2c(OCc3c(F)cccc3F)cc(F)cn12 [Example 48]
-- reply 0.3 µM

-- ask Proceed to Cc1nc2c(OCc3c(F)cccc3F)cccn2c1C(=O)Nc1cnn(CCN2CCC(F)(F)CC2)c1 [Example 127]
-- reply 1.0 µM

-- ask Proceed to Cc1cccc(NC(=O)c2c(C)nc3c(OCc4c(F)cccc4F)cccn23)n1 [Example 5]
-- reply 0.3 µM

-- ask Proceed to Cc1nc2c(OCc3c(F)cccc3F)cccn2c1C(=O)Nc1ccnc2ccc(Cl)cc12 [Example 71]
-- reply 0.1 µM

-- ask Proceed to Cc1n[nH]c(C)c1NC(=O)c1c(C)nc2c(OCc3c(F)cccc3F)cc(Cl)cn12 [Example 41]
-- reply 0.1 µM
